Reference for the values: PubChem BioAssay

# tgt: Dickkopf-related protein 1 (Homo sapiens)
# assayText: small molecules binding DKK1 protein – biochemical, small-molecule microarray, 635 nm fluorescence scan, primary screen (AID 1106);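 further: score merges emission near 667 nm with signal to noise over three replicate slides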
# measurementParameters: higher = more signal
Could you please report measured composite z-score for the items listed next?

Query string: Please look up its composite z-score: CC(C)OC(=O)CC(=O)CC(O)c1cccc([N+](=O)[O-])c1 (stereo unspecified)
Result string: -0.229

Query string: // lookup composite z-score for O=C1c2ccccc2[C@@]2(Cc3ccccc3N(Cc3ccccc3)C2=O)[C@H](c2ccc(CO)cc2)N1Cc1ccccc1Cl
Result string: -0.666

Query string: Look up composite z-score for this molecule: CC(C)=C1C(=O)C(c2ccccc2)=C2CN3C(=O)N(CCc4ccccc4)C(=O)[C@]3(C)[C@H]21
Result string: -0.538

Query string: Requested read-out: composite z-score. Entry: CC1CC/C=C\[C@H]2OC34C=CCN(c5ccc6ccccc6c5)C(=O)[C@H]3N(C(C)CO)C(=O)[C@@H]4C2C(=O)O1 (stereo partly specified)
Result string: -0.591

Query string: Fill in the blank: the reported composite z-score of N#Cc1ccc(-c2cccc(=O)o2)cc1 is ____.
Result string: 0.0771

Query string: Which composite z-score value is on record for CCCC#C[Si](O[C@H](CC)c1cn(Cc2ccccc2)nn1)(C(C)C)C(C)C ?
Result string: 0.576

Query string: Consider the molecule shown here: COc1ccc(C(=O)Nc2cccc(CN3C(=O)[C@@]4(O[C@@H](CC(=O)N5CCC[C@H]5CO)[C@H]([Si](C)(C)c5ccc(OC)cc5)[C@H]4C)c4ccccc43)c2)cc1 What is its recorded composite z-score?
Result string: 0.496

Query string: Record request: composite z-score value, item CCOC(=O)C[C@H]1[C@H](OC(=O)Cc2ccc3c(c2)OCO3)[C@@H](NC(=O)Cc2ccc(OC)cc2)c2cc(OCCCO)ccc2N1C(=O)Cc1ccc(OC)cc1
Result string: -0.141

Query string: Look up composite z-score: COCCOC(=O)N1C(=O)[C@@]2(c3ccccc31)[C@H](c1ccc(O)cc1)N1[C@H](c3ccccc3)[C@H](c3ccccc3)OC(=O)[C@H]1[C@@H]2C(=O)N1CCCCCCC1
Result string: 2.31

Query string: Any idea what composite z-score was measured for C=C1C(=O)C=C2CN(C(=O)c3ccccc3)[C@@](Cc3ccc(OC)cc3)(C(=O)OC)[C@@H]12 ?
Result string: -0.399

Query string: Can you share its composite z-score? I mean this molecule: CCOC(=O)C1=CC[C@@H](c2ccc(OC)cc2)N(S(=O)(=O)c2ccc(C)cc2)[C@H]1CC
Result string: 0.106

Query string: Which composite z-score value belongs to O=C1NC(=O)C2C1C=CC(C(O)c1ccc([N+](=O)[O-])cc1)N2Nc1ccccn1 (stereo unspecified) ?
Result string: 0.328

Query string: Please report the recorded composite z-score for CCN(CC)c1ccc(N2CC=CC34O[C@@H]5C=CCCOC(=O)C5[C@H]3C(=O)N(C(C)CO)[C@@H]4C2=O)cc1 (stereo partly specified) .
Result string: -0.0888

Query string: composite z-score lookup needed for COCCCNC(=O)[C@@]1(CCS(=O)(=O)c2ccccc2)COC(c2ccc(OCCCO)cc2)=N1 , thanks.
Result string: -0.0211

Query string: Find the recorded composite z-score belonging to Cc1ccc(S[C@]2(C(=O)NCCCN(C)C)CC(=O)N(C3Cc4ccccc4C3)[C@@H]2c2ccc(CO)cc2I)cc1 and report it.
Result string: -0.976

Query string: What value of composite z-score has been reported for the following molecule? CCCCCCc1nc(-c2ccc(-c3ccc(Cl)c(Cl)c3)o2)cc2c1[Si](C(C)C)(C(C)C)OC2
Result string: -0.793

Query string: // composite z-score lookup, key: NC(=O)N1C(=O)C2C(C1=O)C1C=C(CCCO)C2C(C2CC2)N1Cc1sc2ccccc2c1Cl (stereo unspecified)
Result string: 0.158

Query string: Query: composite z-score; subject: COC(=O)C(CC#Cc1ccc2c(c1)[C@]1(C(=O)N2)[C@H](C(=O)N2CCc3cc(OC)c(OC)cc3C2)[C@H]2C(=O)O[C@H](c3ccccc3)[C@H](c3ccccc3)N2[C@@H]1c1ccccc1OCCO)C(=O)OC
Result string: 0.627

Query string: Item COc1ccc(C#Cc2ccc3c(c2)[C@]2(C(=O)N3)[C@H](C(=O)O)[C@H]3C(=O)O[C@H](c4ccccc4)[C@H](c4ccccc4)N3[C@@H]2c2ccccc2OCCO)cc1 has what recorded composite z-score?
Result string: 0.301

Query string: For COCCCNC(=O)[C@@]1(Sc2ccc(C)cc2)CC(=O)N(Cc2ccccc2C(F)(F)F)[C@@H]1c1ccc(CO)cc1I , what is its reported composite z-score?
Result string: -0.831

Query string: May I ask what composite z-score has been recorded for C[C@@H]1ON(c2ccccc2)[C@H](c2ccccc2)[C@H]1C(=O)O ?
Result string: 0.796

====

# assayText: probe aShh binding to arrayed compounds – biochemical, biotinylated probe, 635/667 nm fluorescence, primary screen (AID 1114);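 further: probe is biotin-labelled aShh protein from a stem cell growth factor screen; measures binding of labelled protein to compounds printed on the slide; score merges feature fluorescence at 667 nm with signal-to-noise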
# measurementParameters: small-molecule microarray, higher = more signal
Hi there, I'd appreciate the recorded composite z-score for every entry that follows.
No unit in the answer, only the number.

Query string: Item CC(C)(C)N1CC=CC23O[C@@H]4C=CCCOC(=O)C4[C@H]2C(=O)N(CCCCCCO)[C@@H]3C1=O (some centres undefined) has what recorded composite z-score?
Result string: -0.352

Query string: Entry under review: COC(=O)C[C@H]1O[C@@]2(C[C@@H]1[Si](C)(C)C)C(=O)N(C)c1ccccc12 . Reported composite z-score?
Result string: -0.362

Query string: I'd like to know its composite z-score. The compound in question is COC(=O)[C@@]1(Cc2ccc(OC)cc2)[C@H]2c3cc(C(=O)N4CCCC4)n(Cc4c(CO)[nH]cc(C)c4=O)c3C[C@H]2CN1C(=O)c1ccccc1
Result string: -0.156

Query string: May I ask what composite z-score has been recorded for O=C1N(CCS(=O)(=O)c2ccccc2)c2ccccc2C[C@]12N=C(c1ccc(OCCCO)cc1)O[C@@H]2c1ccccc1 ?
Result string: -0.0146

Query string: Please give the measured composite z-score for this compound: CCCN1C(=O)[C@@]2(c3ccc([N+](=O)[O-])cc3)CC(=O)N(CC34CC5CC(CC(C5)C3)C4)[C@@H]2c2ccc(CO)cc21
Result string: -0.0519

Query string: If you can, please state the reported composite z-score value of O=C1[C@@H]2[C@@H](CC(COc3ccccc3)=C([C@H](O)CCc3ccccc3)[C@@H]2CO)C(=O)N1Cc1ccccc1 .
Result string: -0.0553

Query string: Data request, read-out composite z-score, for CC(C)N1C(=O)C[C@@](C(=O)NCCN2CCOCC2)(c2ccc([N+](=O)[O-])cc2)[C@H]1c1ccc(CO)cc1
Result string: -0.221

Query string: composite z-score lookup needed for C=C(CCCC)C(=O)CC[C@H](OC(=O)c1ccccc1-c1ccccc1C(=O)O)c1ccc(OCCO)cc1 , thanks.
Result string: -0.154

Query string: Returns the measured composite z-score for the input compound. Input: COc1cc(OC)c(C(O)C2C=CC3C(=O)N(c4ccccc4)C(=O)C3N2Nc2ccc(C(C)C)cc2)cc1Br (centres undefined)
Result string: 0.158

====

# assayText: budding yeast growth modifiers under rapamycin – strain BY4716, OD600, 96 h, primary screen (AID 1091); further: test concentration not given here
# measurementParameters: S. cerevisiae BY4716 + rapamycin, higher = more signal, called active from +8 up or from −8 down
Active and inactive are the calls of the source.
Assignment: determine reported z-score for the given molecules.

Query string: Requested field: z-score. Item: COc1ccc([Si](C)(C)[C@@H]2[C@@H](CC(=O)N3Cc4ccccc4C[C@H]3CO)O[C@]3(C(=O)N(Cc4cccc(N5CCOC5=O)c4)c4ccccc43)[C@H]2C)cc1
Result string: 1.77 (inactive)

Query string: Query: z-score; subject: CCOC(=O)C1=CC[C@@H](c2ccc(OC)cc2)N(S(=O)(=O)c2ccc(C)cc2)[C@H]1CC
Result string: 0.879 (inactive)

Query string: Name the recorded z-score for C=CCOC(=O)[C@@H]1[C@H]2C(=O)O[C@H](c3ccccc3)[C@H](c3ccccc3)N2[C@H](c2ccc(OCCOC(=O)[C@H]3C[C@H]4C(=O)NCC(=O)N4[C@H]3c3cccc(OCCO)c3)cc2)[C@@]12C(=O)Nc1ccc(I)cc12 .
Result string: 3.6 (inactive)

Query string: Can you look up the measured z-score of CO[C@H]1O[C@H](CO)[C@@H](OC(=O)Nc2ccccc2)[C@H](OC(=O)Nc2ccccc2)[C@H]1OC(=O)Nc1ccccc1 for me?
Result string: 0.997 (inactive)

Query string: Need z-score, item C=C(COC)C(=O)CC[C@@H](OC(C)=O)c1ccccc1OCCO
Result string: -1.51 (inactive)

Query string: Fill blank: measured z-score of the molecule O=C(NCc1ccccc1)[C@@H]1c2ccccc2C(=O)N(Cc2ccc(OC(F)(F)F)cc2)[C@H]1c1ccc(CO)cc1 is ____.
Result string: -0.574 (inactive)

Query string: Which z-score value belongs to [N-]=[N+]=NCc1ccccc1[C@@H]1OC(c2ccc(OCCCO)cc2)=N[C@]1(Cc1ccccc1N=[N+]=[N-])C(=O)O ?
Result string: -0.794 (inactive)

Query string: I have this molecule here, COc1cc(C(O)C2C=CC3C(=O)N(c4ccccc4)C(=O)C3N2Nc2ccccc2F)cc(OC)c1OC (centres undefined) , and I need its recorded z-score.
Result string: 1.32 (inactive)

Query string: Any idea what its z-score is? The molecule is C=CC1c2cc(O)c(OC)cc2CCN1C (centres undefined)
Result string: 0.0904 (inactive)
